Cited source for all entries: patent US7709471B2

Molecular target: recombinant Plk1 (Homo sapiens)
Test: In Vitro Plk1 Enzyme Assay (SPA, GST-Cdc25C phosphorylation)
Type: biochemical
Settings: ATP 64 nM, 90 minutes, read-out: IC50 (Plk1 enzyme inhibition)
pIC50: −log10 of the molar value. Where a name gives a salt, the structure may show the parent alone.
Parameter pIC50: see the listing below.

Known pIC50 results, listed for orientation:
COMPOUND: COc1cc(C(=O)NCC(C)(C)CN(C)C)ccc1Nc1ncc2c(n1)N(C1CCCC1)CCC(=O)N2C [Example 10, hydrochloride]
pIC50: > 6.52
//
COMPOUND: CN1C(=O)CCN(C2CCCC2)c2nc(Nc3cccc(S(C)(=O)=O)c3)ncc21
pIC50: > 4.00
//
COMPOUND: COc1cc(C(=O)NCc2ccccc2)ccc1Nc1ncc2c(n1)N(C1CCCC1)CCC(=O)N2C
pIC50: > 4.00
//
COMPOUND: COc1ccccc1Nc1ncc2c(n1)N(C1CCCC1)CCC(=O)N2C
pIC50: > 6.00
//
COMPOUND: COc1cc(C(=O)NC(C)CN2CCCCC2)ccc1Nc1ncc2c(n1)N(C1CCCC1)CCC(=O)N2C (stereo not drawn)
pIC50: > 6.52
//
COMPOUND: CCN1CCC(NC(=O)c2ccc(Nc3ncc4c(n3)N(C3CCCC3)CCC(=O)N4C)c(OC)c2)CC1
pIC50: > 6.52

Form field pIC50, entry COCC(C)N1CCC(=O)Nc2cnc(Nc3ccc(C(=O)NC4CCN(C)CC4)cc3OC)nc21 (stereo not drawn) : > 4.00

get_value(item= Cc1nc(Nc2ncc3c(n2)N(C2CCCC2)CCC(=O)N3C)sc1C(=O)NC1CCN(C)CC1 , readout=pIC50) returns > 6.00

response.value for CN1CCC(NC(=O)c2ccc(Nc3ncc4c(n3)N(C3CCCC3)CCC(=O)N4C)cc2F)CC1 (field: pIC50) = > 6.52

pIC50 reported for this compound CN1C(=O)CCN(C2CCCC2)c2nc(Nc3cccc(S(=O)(=O)N4CCOCC4)c3)ncc21 : > 4.00

// recorded pIC50 for CCOc1ccccc1Nc1ncc2c(n1)N(C1CCCC1)CCC(=O)N2C : > 4.00

The recorded pIC50 for entry COc1cc(C(=O)N[C@H]2[C@@H]3CNC[C@@H]32)ccc1Nc1ncc2c(n1)N(C1CCCC1)CCC(=O)N2C equals > 6.52

Documented pIC50 of CN1C(=O)CCN(C2CCCC2)c2nc(Nc3cccc(CO)c3)ncc21 : > 6.00

What the record says about CC(=O)N1CCN(c2ccc(Nc3ncc4c(n3)N(C3CCCC3)CCC(=O)N4C)cc2)CC1 : pIC50 is > 6.00

Measured pIC50, CN1C(=O)CCN(C2CCCC2)c2nc(Nc3cccc(C#N)c3)ncc21 : > 4.00

What the record says about COc1cc(C(=O)NC2CCCCC2)ccc1Nc1ncc2c(n1)N(C1CCN(C)CC1)CCC(=O)N2C : pIC50 is > 6.00

Measured pIC50 of Cc1ccc(CO)cc1Nc1ncc2c(n1)N(C1CCCC1)CCC(=O)N2C : > 6.00

In plain terms, COc1cc(C(=O)NC2CCN(C)CC2)ccc1Nc1ncc2c(n1)N(CCC(C)C)CCC(=O)N2C has a documented pIC50 of > 6.00

compound COc1cc(C(=O)NC2CCN(C)CC2)ccc1Nc1ncc2c(n1)N(C1CCCC1=O)CCC(=O)N2C (stereo not drawn) , pIC50 observed: > 6.00

Note to self: pIC50 recorded for COc1cc(C(=O)NC2CCC2)ccc1Nc1ncc2c(n1)N(C1CCCC1)CCC(=O)N2C was > 6.00

Sure, the documented pIC50 for CC(C)NC(=O)c1ccc(Nc2ncc3c(n2)N(C2CCCC2)CCC(=O)N3C)cc1 is > 6.52

// recorded pIC50 for COc1cc(C(=O)NCCCN(C)C)ccc1Nc1ncc2c(n1)N(C1CCCCC1)CC1(CC1)C(=O)N2C : > 6.52

pIC50 recorded for this compound, COc1cc(C(=O)NC2C[C@H]3CCC[C@@H](C2)N3C)ccc1Nc1ncc2c(n1)N(C1CCCC1)CC1(CC1)C(=O)N2C (stereo partly drawn) , is > 6.52

GET /value?item= COc1cc(OC2CCN(C)CC2)ccc1Nc1ncc2c(n1)N(C1CCCC1)CCC(=O)N2C &field=pIC50 returns > 6.00

Item: COc1cc(C(=O)Nc2ccncc2)ccc1Nc1ncc2c(n1)N(C1CCCC1)CCC(=O)N2C | pIC50: > 6.00

In plain terms, CC(=O)N1CCc2cc(Nc3ncc4c(n3)N(C3CCCC3)CCC(=O)N4C)ccc21 has a documented pIC50 of > 6.00

Given item CN1C(=O)CCN(C2CCCC2)c2nc(Nc3ccccc3Oc3ccccc3)ncc21 , the value recorded as its pIC50 is > 4.00

* * *

Target: recombinant Plk1 (Homo sapiens, UniProt P53350)
Sequence (P53350 whole entry): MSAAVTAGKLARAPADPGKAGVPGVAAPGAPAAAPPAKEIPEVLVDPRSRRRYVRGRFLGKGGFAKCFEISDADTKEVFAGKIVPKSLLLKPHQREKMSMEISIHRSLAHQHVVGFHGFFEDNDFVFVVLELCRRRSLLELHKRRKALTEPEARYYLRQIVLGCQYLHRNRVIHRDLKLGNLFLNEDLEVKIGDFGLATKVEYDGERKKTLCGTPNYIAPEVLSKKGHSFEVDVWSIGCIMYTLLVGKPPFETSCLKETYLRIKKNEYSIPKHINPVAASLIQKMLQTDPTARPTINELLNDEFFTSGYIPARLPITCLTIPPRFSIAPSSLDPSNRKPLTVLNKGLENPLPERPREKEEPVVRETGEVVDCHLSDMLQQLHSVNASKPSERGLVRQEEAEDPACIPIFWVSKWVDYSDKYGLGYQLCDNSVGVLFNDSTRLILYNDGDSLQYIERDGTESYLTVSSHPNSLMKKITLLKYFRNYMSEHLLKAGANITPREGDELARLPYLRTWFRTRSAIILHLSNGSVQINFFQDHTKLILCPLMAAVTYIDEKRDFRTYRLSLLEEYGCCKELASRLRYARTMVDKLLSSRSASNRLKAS
Assay: In Vitro Plk1 Enzyme Assay (SPA, GST-Cdc25C phosphorylation)
Settings: ATP 64 nM, 90 minutes, read-out: IC50 (Plk1 enzyme inhibition)
Reported values of IC50 for individual entries

Take a look at these entries with their results.
GIVEN SMILES: COc1cccc(Nc2ncc3c(n2)N(C2CCCC2)CCC(=O)N3C)c1
VALUE TYPE: IC50
RESULT: < 1000 nM
//
GIVEN SMILES: COc1cc(C(N)=O)ccc1Nc1ncc2c(n1)N(C1CCCC1)CCC(=O)N2C
VALUE TYPE: IC50
RESULT: < 300 nM
//
GIVEN SMILES: COc1cc(C(=O)NC2CCN(C(=O)OCc3ccccc3)CC2)ccc1Nc1ncc2c(n1)N(C1CCCC1)CCC(=O)N2C
VALUE TYPE: IC50
RESULT: < 100000 nM
//
GIVEN SMILES: COc1cc(C(=O)NC2CCN(CC3CC3)CC2)ccc1Nc1ncc2c(n1)N(C1CCCC1)CCC(=O)N2C
VALUE TYPE: IC50
RESULT: < 300 nM

Lab book: IC50 of CN1CCC(NC(=O)c2ccc(Nc3ncc4c(n3)N(C3CCCC3)CCC(=O)N4C)c(F)c2)CC1 noted as < 300 nM

In plain terms, CCOc1cc(C(=O)NC2CCN(CC)CC2)ccc1Nc1ncc2c(n1)N(C(C)C)CCC(=O)N2C has a documented IC50 of < 1000 nM

// recorded IC50 for COc1cc(C(=O)NCCCN2CCN(C)CC2)ccc1Nc1ncc2c(n1)N(C1CCCC1)CCC(=O)N2C : < 300 nM

IC50 in this record for COc1cc(C(=O)NC2CCN(C)CC2)ccc1Nc1ncc2c(n1)N(Cc1csc(C)n1)CCC(=O)N2C : < 1000 nM

Sure, the documented IC50 for CC(=O)c1cccc(Nc2ncc3c(n2)N(C2CCCC2)CCC(=O)N3C)c1 is < 1000 nM

Measured IC50, CC(C)Oc1cc(C(=O)NC2CCN(C)CC2)ccc1Nc1ncc2c(n1)N(C1CCCC1)CCC(=O)N2C : < 1000 nM

Recorded IC50 (compound COCCNS(=O)(=O)c1ccc(Nc2ncc3c(n2)N(C2CCCC2)CCC(=O)N3C)cc1 ): < 100000 nM

// CCN1C(=O)CCN(C2CCCC2)c2nc(Nc3ccc(C(=O)NC4CCN(C)CC4)cc3OC)ncc21 : IC50 value = < 1000 nM

Lab note: measured IC50 of CN1C(=O)CCN(C2CCCC2)c2nc(Nc3ccccc3Br)ncc21 was < 100000 nM

For this compound ( COc1cc(C(=O)N[C@@H]2CCNC2)ccc1Nc1ncc2c(n1)N(C1CCCC1)CCC(=O)N2C ), measured IC50 is < 300 nM

* * *

Molecular target: recombinant Plk1 (Homo sapiens)
Assay: In Vitro Plk1 Enzyme Assay (SPA, GST-Cdc25C phosphorylation)
Details: ATP 64 nM, 90 minutes, read-out: IC50 (Plk1 enzyme inhibition)
VALUE TYPE: IC50

So for CN1C(=O)CCN(C2CCCC2)c2nc(Nc3ccccc3NCCN3CCOCC3)ncc21 , the logged IC50 turned out to be < 100 µM

* * *

Biological target: recombinant Plk1 (Homo sapiens, UniProt P53350)
Experiment: In Vitro Plk1 Enzyme Assay (SPA, GST-Cdc25C phosphorylation)
Assay type: biochemical
Details: ATP 64 nM, 90 minutes, read-out: IC50 (Plk1 enzyme inhibition)
pIC50: −log10 of the molar value.
Item-by-item account of pIC50

GIVEN SMILES: COc1cc(C(=O)NCCN(C)C)ccc1Nc1ncc2c(n1)N(C1CCCC1)CC1(CC1)C(=O)N2C
pIC50: > 6.52

GIVEN SMILES: COc1ccc(Nc2ncc3c(n2)N(C2CCCC2)CCC(=O)N3C)cc1
pIC50: > 4.00

// pIC50 value for CN1C(=O)CCN(c2ccccc2)c2nc(Nc3ccc(C(=O)NCCN4CCOCC4)cc3Cl)ncc21 : > 6.00

pIC50 measured on COc1cc(C(=O)N[C@H]2[C@@H]3CN(C)C[C@@H]32)ccc1Nc1ncc2c(n1)N(C1CCCC1)CCC(=O)N2C = > 6.52

Notebook: COc1cc(C(=O)NCC(C)(C)CN(C)C)ccc1Nc1ncc2c(n1)N(C(C)C)CCC(=O)N2C , pIC50 read as > 6.52

Sample CN1C(=O)CCN(C2CCCC2)c2nc(Nc3ccc(C#N)c(C(F)(F)F)c3)ncc21 ; pIC50 observed: > 4.00

The molecule listed as CN1C(=O)CCN(C2CCCC2)c2nc(Nc3ccc(C(=O)NCCN4CCOCC4)cc3)ncc21 shows pIC50 equal to > 6.00

pIC50 in this record for COc1cc(C(=O)NC2CCCCC2)ccc1Nc1ncc2c(n1)N(CCN(C)C)CCC(=O)N2C : > 4.00

Entry COc1cc(C(=O)Nc2cccnc2)ccc1Nc1ncc2c(n1)N(C1CCCC1)CCC(=O)N2C ; pIC50 = > 4.00

pIC50 recorded for this molecule, COc1cc(C(=O)NC(C)C)ccc1Nc1ncc2c(n1)N(C1CCCC1)CCC(=O)N2C , is > 6.00

Reported pIC50 for COc1cc(C(=O)NCCN2CCOCC2)ccc1Nc1ncc2c(n1)N(C1CCCC1)CCC(=O)N2 was > 6.00
